Test: Determination of metabolic stability with human liver microsomes
Conditions: pooled human liver microsomes, 1 μM test compound, 37° C., NADPH
Documented In vitro stability in human liver microsome incubations t½ across a set of compounds
Express your answer in min, writing the number without its unit.

| compound | unit.text | result |
| --- | --- | --- |
| CS(=O)(=O)c1cc(OCC(F)(F)F)cc(-c2ccc(C[C@@H](C#N)NC(=O)[C@H]3N[C@@H]4CC[C@H]3C4)c(F)c2)c1 [Example 276] | min | 130 |
| CS(=O)(=O)c1ccc(-c2ccc(C[C@@H](C#N)NC(=O)[C@H]3N[C@@H]4CC[C@H]3C4)c(F)c2)cc1OCC(F)F [Example 252] | min | 130 |

The value of In vitro stability in human liver microsome incubations t½ measured for the compound N#CC(Cc1ccc(-c2cnn(-c3ccccc3)c2)cc1F)NC(=O)[C@H]1N[C@@H]2CC[C@H]1C2 (stereo partly drawn) [Example 78] turned out to be 130

###

Molecular target: recombinant human DPPI (Cathepsin C) (Homo sapiens (Human))
Sequence (P53634 231-394): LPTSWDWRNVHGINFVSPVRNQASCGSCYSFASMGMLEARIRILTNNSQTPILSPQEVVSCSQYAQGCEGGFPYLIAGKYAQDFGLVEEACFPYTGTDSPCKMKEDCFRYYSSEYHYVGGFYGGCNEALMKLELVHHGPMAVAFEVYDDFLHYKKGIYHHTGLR
Sequence (P53634 395-463): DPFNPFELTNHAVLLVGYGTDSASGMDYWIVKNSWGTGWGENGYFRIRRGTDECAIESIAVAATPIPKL
Sequence (P53634 25-134): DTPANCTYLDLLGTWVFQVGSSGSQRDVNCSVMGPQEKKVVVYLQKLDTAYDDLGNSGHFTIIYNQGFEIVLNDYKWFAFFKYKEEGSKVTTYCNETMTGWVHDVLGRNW
Assay: Inhibition of human DPPI (Cathepsin C)
Conditions: substrate Gly-Arg-AMC
property.name: pIC50
Just the number, please; pIC50 means minus log10 of the concentration in mol/L.

| compound | result |
| --- | --- |
| CC1(C)CCN(c2ccc(C[C@@H](C#N)NC(=O)[C@H]3N[C@@H]4CC[C@H]3C4)c(F)c2)CC1 | 7.83 |

Memo: COCCN1C(=O)Cc2ccc(-c3ccc(C[C@@H](C#N)NC(=O)[C@H]4N[C@@H]5CC[C@H]4C5)c(F)c3)cc21 , reported pIC50: 8.82

Kindly note the recorded pIC50 for N#C[C@H](Cc1ccc(-c2ccc(C(=O)N3CCn4nccc4C3)s2)cc1F)NC(=O)[C@H]1N[C@@H]2CC[C@H]1C2 , which is 8.34

Measured pIC50 of CCCNC(=O)c1cc(-c2ccc(C[C@@H](C#N)NC(=O)[C@H]3N[C@@H]4CC[C@H]3C4)c(F)c2)cs1 : 8.64

// pIC50 value for CCN1CCC(c2ccc(C[C@@H](C#N)NC(=O)[C@H]3N[C@@H]4CC[C@H]3C4)c(F)c2)CC1 : 7.70

###

Measured pIC50 values are reported for all entries that follow.
Target: recombinant human DPPI (Cathepsin C) (Homo sapiens (Human))
Test: Inhibition of human DPPI (Cathepsin C)
Conditions: substrate Gly-Arg-AMC
Note on units: pIC50 is unitless, being -log10 of a concentration expressed in mol/L.

Here's what some known entries look like.
| compound | pIC50 |
| --- | --- |
| N#CC(Cc1cc2c(=O)[nH]c3cc(F)ccc3c2cc1F)NC(=O)[C@H]1N[C@@H]2CC[C@H]1C2 (some centres unmarked) | 8.89 |
| N#CC(Cc1ccc2[nH]ncc2c1)NC(=O)[C@H]1N[C@@H]2CC[C@H]1C2 (some centres unmarked) | 6.17 |
| N#C[C@H](Cc1ccc(-c2cnn(C(=O)C3CCOCC3)c2)cc1F)NC(=O)[C@H]1N[C@@H]2CC[C@H]1C2 | 7.94 |
| N#C[C@H](Cc1ccc(-c2cnc3cccnn23)cc1F)NC(=O)[C@H]1N[C@@H]2CC[C@H]1C2 | 8.25 |
| Cn1c(=O)c2cc(C[C@@H](C#N)NC(=O)[C@H]3N[C@@H]4CC[C@H]3C4)c(F)cc2c2ccccc21 | 8.72 |

get_value(item= N#C[C@H](Cc1ccc(-c2cccc(S(N)(=O)=O)c2)cc1F)NC(=O)[C@H]1N[C@H]2C[C@@H]1[C@@H]1C[C@@H]12 , readout=pIC50) returns 8.17

Form: compound = CS(=O)(=O)c1ccn(-c2ccc(C[C@@H](C#N)NC(=O)[C@H]3N[C@@H]4CC[C@H]3C4)c(F)c2)c(=O)c1 ; pIC50 = 7.36

Reported pIC50 ( N#C[C@H](Cc1ccc(N2CCC(N3CCOCC3)CC2)cc1F)NC(=O)[C@H]1N[C@@H]2CC[C@H]1C2 ) = 7.91

# compound Cn1nc2ccccc2c1-c1ccc(C[C@@H](C#N)NC(=O)[C@H]2N[C@@H]3CC[C@H]2C3)c(F)c1 ; its pIC50 = 8.06

The recorded pIC50 for entry N#C[C@H](Cc1ccc(-c2ccc(C(=O)NC3CCOCC3)cc2)cc1F)NC(=O)[C@H]1N[C@@H]2CC[C@H]1C2 equals 7.78

For reference, reported pIC50 for CC(=O)n1nc(-c2ccc(CC(C#N)NC(=O)[C@H]3N[C@@H]4CC[C@H]3C4)c(F)c2)cc1C (some centres unmarked) stands at 8.72

Entry N#C[C@H](Cc1ccc(-c2cnn(C[C@H]3CCCO3)c2)cc1F)NC(=O)[C@H]1N[C@@H]2CC[C@H]1C2 , pIC50 reported as 8.46

According to the records, this compound N#C[C@H](Cc1ccc(-c2csc(C(=O)N3CCCC3)c2)cc1F)NC(=O)[C@H]1N[C@@H]2CC[C@H]1C2 displays pIC50 of 8.57

Form field pIC50, entry N#C[C@H](Cc1ccc(N2CCN(c3ccccc3)CC2)cc1F)NC(=O)[C@H]1N[C@@H]2CC[C@H]1C2 : 8.35

###

Target: recombinant human Cathepsin K (Homo sapiens (Human), UniProt P43235)
Sequence (P43235 115-329): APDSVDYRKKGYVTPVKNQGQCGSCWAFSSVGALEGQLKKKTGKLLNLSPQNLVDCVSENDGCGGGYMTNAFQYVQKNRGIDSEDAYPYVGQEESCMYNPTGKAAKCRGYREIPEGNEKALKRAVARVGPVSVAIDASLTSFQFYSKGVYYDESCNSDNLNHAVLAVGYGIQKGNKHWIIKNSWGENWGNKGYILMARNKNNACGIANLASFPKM
Test: Inhibition of human Cathepsin K
Details: substrate Z-Gly-Pro-Arg-AMC
Entries get a class label from measured IC50. See ranges: 1 = under 3 µM, 2 = from 3 µM up to 5 µM, 3 = 5 µM and over

Examples with answers:
| molecule | target.system | class.name |
| --- | --- | --- |
| N#C[C@H](Cc1ccc(-c2ccc(C(=O)NC3CCOCC3)cc2)cc1F)NC(=O)[C@H]1N[C@@H]2CC[C@H]1C2 [Example 200] | recombinant human Cathepsin K (Homo sapiens (Human), UniProt P43235) | 2 |
| N#C[C@H](Cc1ccc(N2CCN3CCOC[C@H]3C2)cc1F)NC(=O)[C@H]1N[C@@H]2CC[C@H]1C2 [Example 250] | recombinant human Cathepsin K (Homo sapiens (Human), UniProt P43235) | 2 |
| N#C[C@H](Cc1ccc(-c2ccc3c(c2)C(=O)OC3)cc1F)NC(=O)[C@H]1N[C@@H]2CC[C@H]1C2 [Example 34] | recombinant human Cathepsin K (Homo sapiens (Human), UniProt P43235) | 1 |
| CS(=O)(=O)c1cccc(-c2ccc(C[C@@H](C#N)NC(=O)[C@H]3N[C@@H]4CC[C@H]3C4)c(F)c2)c1 [Example 4] | recombinant human Cathepsin K (Homo sapiens (Human), UniProt P43235) | 1 |
| CC(=O)c1ccc(-c2ccc(CC(C#N)NC(=O)[C@H]3N[C@@H]4CC[C@H]3C4)c(F)c2)s1 (stereo partly shown) [Example 72] | recombinant human Cathepsin K (Homo sapiens (Human), UniProt P43235) | 3 |
| N#CC(Cc1ccc2c(c1)c(=O)[nH]c1c(F)c(F)ccc12)NC(=O)[C@H]1N[C@@H]2CC[C@H]1C2 (stereo partly shown) [Example 300] | recombinant human Cathepsin K (Homo sapiens (Human), UniProt P43235) | 3 |
| N#C[C@H](Cc1ccc(-n2cc(-c3ccc4[nH]ccc4c3)nn2)cc1F)NC(=O)[C@H]1N[C@@H]2CC[C@H]1C2 [Example 5] | recombinant human Cathepsin K (Homo sapiens (Human), UniProt P43235) | 1 |
| N#CC(Cc1cc2c(=O)[nH]c3cc(F)ccc3c2cc1F)NC(=O)[C@H]1N[C@@H]2CC[C@H]1C2 (stereo partly shown) [Example 293] | recombinant human Cathepsin K (Homo sapiens (Human), UniProt P43235) | 1 |

## Input Where would CC(C)CC(=O)n1cc(-c2ccc(C[C@@H](C#N)NC(=O)[C@H]3N[C@@H]4CC[C@H]3C4)c(F)c2)cn1 [Example 48] land among the classes by reported IC50?
## Output 2

## Input For the record CN1C(=O)Cc2ccc(-c3ccc(C[C@@H](C#N)NC(=O)[C@H]4N[C@@H]5CC[C@H]4C5)c(F)c3)cc21 [Example 2] , report the class its IC50 corresponds to.
## Output 1

## Input Lab note: sort CCCn1cc(-c2ccc(C[C@@H](C#N)NC(=O)[C@H]3N[C@@H]4CC[C@H]3C4)c(F)c2)cn1 [Example 30] into the matching IC50 band.
## Output 2

## Input Just checking, what class would you give CN1CCN(c2ccc(C[C@@H](C#N)NC(=O)[C@H]3N[C@@H]4CC[C@H]3C4)c(F)c2)CC1 [Example 6] here?
## Output 1

## Input In plain terms, what class is CN1C2CCC1CN(c1ccc(C[C@@H](C#N)NC(=O)[C@H]3N[C@@H]4CC[C@H]3C4)c(F)c1)C2 [Example 333] ?
## Output 1

## Input Form field 'band' for CCc1ncc(-c2ccc(C[C@@H](C#N)NC(=O)[C@H]3N[C@H]4C[C@@H]3[C@@H]3C[C@@H]34)c(F)c2)s1 [Example 113]
## Output 3

## Input Bin this entry: Cc1nc(C)c(-c2ccc(C[C@@H](C#N)NC(=O)[C@H]3N[C@@H]4CC[C@H]3C4)c(F)c2)s1 [Example 80]
## Output 2

## Input # bin label for CS(=O)(=O)c1cc(-c2ccc(CC(C#N)NC(=O)[C@H]3N[C@@H]4CC[C@H]3C4)c(F)c2)ccc1C#N (stereo partly shown) [Example 19]
## Output 3

## Input For this molecule, which bin applies? Cn1c(=O)c2cc(CC(C#N)NC(=O)[C@H]3N[C@@H]4CC[C@H]3C4)ccc2c2ccc(C#N)cc21 (stereo partly shown) [Example 303]
## Output 3

## Input State the band of CN(C)CC1CCCN(c2ccc(C[C@@H](C#N)NC(=O)[C@H]3N[C@@H]4CC[C@H]3C4)c(F)c2)C1 (stereo partly shown) [Example 345]
## Output 3

## Input Place this molecule in its band: CCC(C)(O)Cc1cn(-c2ccc(C[C@@H](C#N)NC(=O)[C@H]3N[C@@H]4CC[C@H]3C4)c(F)c2)nn1 (stereo partly shown) [Example 82]
## Output 3

## Input Category lookup for the molecule CN1C(=O)C(C)(C)c2ccc(-c3ccc(C[C@@H](C#N)NC(=O)[C@H]4N[C@@H]5CC[C@H]4C5)c(F)c3)cc21 [Example 199]
## Output 3

## Input Please classify: N#CC(Cc1ccc(-c2ccc(Cl)nn2)cc1F)NC(=O)[C@H]1N[C@@H]2CC[C@H]1C2 (stereo partly shown) [Example 108]
## Output 3

## Input Given N#C[C@H](Cc1ccc(N2CC3CCN(C4CCOC4)C3C2)cc1F)NC(=O)[C@H]1N[C@@H]2CC[C@H]1C2 (stereo partly shown) [Example 348] , name the class its IC50 places it in.
## Output 2

## Input # bin label for Cc1c(-c2ccc(C[C@@H](C#N)NC(=O)[C@H]3N[C@@H]4CC[C@H]3C4)c(F)c2)cnn1C [Example 39]
## Output 3

## Input # classify by IC50 band: N#CC(Cc1cc2c(=O)[nH]c3ccc(F)cc3c2cc1F)NC(=O)[C@H]1N[C@@H]2CC[C@H]1C2 (stereo partly shown) [Example 295]
## Output 2
